tested on: MDA-N; assay: NCI tumour cell line growth inhibition, 48 h

{"Compound": "Clc1nc(-c2ccccc2)nc(Cl)c1Cl", "Inequality sign": "=", "TGI [µM]": 26.6}
{"Compound": "CCC1(N)C(=O)OCc2c1cc1n(c2=O)Cc2cc3ccccc3nc2-1 (configuration not stated)", "Inequality sign": ">", "TGI [µM]": 100}
{"Compound": "Cc1c(C#N)c(N)n(C2OC(CO)C(O)C(O)C2O)c(=S)c1C#N (configuration not stated)", "Inequality sign": ">", "TGI [µM]": 100}
{"Compound": "O=P(O)(O)CC1OC(CO)C(O)C1O (configuration not stated)", "Inequality sign": ">", "TGI [µM]": 100}
{"Compound": "COC(=O)C1(Cc2ccc(C)cc2)Cc2c(C)cccc2C1=O (configuration not stated)", "Inequality sign": "=", "TGI [µM]": 14.4}
{"Compound": "OC[C@@H](O)[C@H](O)[C@@H](O)/C=N/Nc1ccc(Cl)nn1", "Inequality sign": ">", "TGI [µM]": 100}
{"Compound": "C=C(C)C1CC2=C(O1)C(=O)c1cccc(O)c1C2=O (configuration not stated)", "Inequality sign": "=", "TGI [µM]": 0.132}
